Value source: PubChem BioAssay

Target: NADPH oxidase 2 (Homo sapiens) (UniProt P04839)
Sequence (P04839 whole entry, looked up): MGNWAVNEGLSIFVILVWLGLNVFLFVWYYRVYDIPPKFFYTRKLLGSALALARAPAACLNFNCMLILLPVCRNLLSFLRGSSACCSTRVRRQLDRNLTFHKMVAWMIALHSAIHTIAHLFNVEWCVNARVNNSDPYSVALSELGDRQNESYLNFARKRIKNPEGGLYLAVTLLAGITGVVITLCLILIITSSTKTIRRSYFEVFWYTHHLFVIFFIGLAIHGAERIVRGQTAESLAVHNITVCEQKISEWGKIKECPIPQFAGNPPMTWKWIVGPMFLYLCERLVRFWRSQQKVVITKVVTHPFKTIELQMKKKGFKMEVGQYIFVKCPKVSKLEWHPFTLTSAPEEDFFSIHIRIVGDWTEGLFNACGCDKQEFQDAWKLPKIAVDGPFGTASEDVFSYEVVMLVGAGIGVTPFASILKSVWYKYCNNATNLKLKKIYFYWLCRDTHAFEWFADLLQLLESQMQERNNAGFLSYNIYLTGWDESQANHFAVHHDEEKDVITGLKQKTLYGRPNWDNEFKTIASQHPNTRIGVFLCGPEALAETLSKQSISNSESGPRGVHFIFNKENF
Experiment: compounds shifting NOX2 Amplex Red fluorescence – cell-based, HEK293-NOX2, PMA-stimulated, NOX inhibitor project, primary screen (AID 1159); also: test concentration not given here
Settings: 45 min, higher = more signal, called active from +8 up or from −8 down
Give z-score for every item shown.
// return just the number, without any unit appended

Exercise: Output reported z-score of the molecule `COC(=O)[C@@]1(Cc2ccc(F)cc2)[C@H]2c3cc(C(=O)N4CCCC4)n(Cc4ccc(C)c(F)c4F)c3C[C@H]2CN1C(=O)c1ccccc1` on NADPH oxidase 2 (Homo sapiens) (UniProt P04839).
Solution: -4.01

Exercise: Output reported z-score of the molecule CCCCC(O)C1C=CC2C(=O)N(C)C(=O)C2N1N(c1ccccc1)c1ccccc1 (stereo not drawn) on NADPH oxidase 2 (Homo sapiens) (UniProt P04839).
Solution: -0.334

Exercise: Output reported z-score of the molecule `CCCC=C(CCC)[C@@H](NC(=O)c1cccs1)c1ccc(C(=O)OC)cc1` on NADPH oxidase 2 (Homo sapiens) (UniProt P04839).
Solution: 0.0754

Exercise: Output reported z-score of the molecule [N-]=[N+]=NCc1ccccc1[C@H]1OC(c2ccc(OCCCO)cc2)=N[C@@]1(Cc1ccccc1N=[N+]=[N-])C(=O)NCC(O)CO (stereo partly drawn) on NADPH oxidase 2 (Homo sapiens) (UniProt P04839).
Solution: -3.08

Exercise: Output reported z-score of the molecule `[N-]=[N+]=Nc1ccccc1[C@H]1OC(c2ccc(OCCCO)cc2)=N[C@@]1(Cc1ccccc1)C(=O)NCCN1CCOCC1` on NADPH oxidase 2 (Homo sapiens) (UniProt P04839).
Solution: -1

Exercise: Output reported z-score of the molecule CC(C)C(CO)N1C(=O)[C@@H]2[C@H]3C(=O)OCC=C[C@H]3OC23C=CCN(c2ccc(Cl)cc2)C(=O)[C@@H]13 (stereo partly drawn) on NADPH oxidase 2 (Homo sapiens) (UniProt P04839).
Solution: 1.1

Exercise: Output reported z-score of the molecule `CC1=C2[C@@H](CCc3ccccc3)OB(O)C[C@@H]2[C@@H]2C(=O)N(C)C(=O)[C@@H]2C1` on NADPH oxidase 2 (Homo sapiens) (UniProt P04839).
Solution: 0.162

Exercise: Output reported z-score of the molecule COc1cc2c(cc1O)C(C1CC1)N(C)CC2 (stereo not drawn) on NADPH oxidase 2 (Homo sapiens) (UniProt P04839).
Solution: -4.61
